experiment: Plasma and CSF pharmacokinetics from NCT03522129; type: in vivo, human; conditions: human, CSF, 560 mg; Subject 90001; single dose of CT1812 (560 mg)
Property: AUC(0-t) (ng·h/mL)
Give the value in ng·h/mL but do not write ng·h/mL after it.

What does the record list as AUC(0-t) for CC(C)(C)Oc1cc(CCC(C)(C)N2Cc3ccc(S(C)(=O)=O)cc3C2)ccc1O [CT1812] ? 120

* * *

assay: Plasma and CSF pharmacokinetics from NCT03522129; assay type: in vivo, human; settings: human, CSF/plasma, 560 mg, Subject 90001; single dose of CT1812 (560 mg); read-out: CSF/Plasma Ratio based on Cmax
Property: Kp
Just the number, please.

What does the record list as Kp for "CC(C)(C)Oc1cc(CCC(C)(C)N2Cc3ccc(S(C)(=O)=O)cc3C2)ccc1O" ? 0.0358

* * *

assay: Plasma and CSF pharmacokinetics from NCT03522129; assay type: in vivo, human; settings: human, plasma, 560 mg; Subject 90003; single dose of CT1812 (560 mg)
Property: AUC(0-t)

What does the record list as AUC(0-t) for "CC(C)(C)Oc1cc(CCC(C)(C)N2Cc3ccc(S(C)(=O)=O)cc3C2)ccc1O" ? 1210 ng·h/mL

* * *

assay: Plasma and CSF pharmacokinetics from NCT03522129; assay type: in vivo, human; conditions: human, plasma, 560 mg; Subject 90003; single dose of CT1812 (560 mg)
Property: Cmax (ng/mL)
Give the value in ng/mL but do not write ng/mL after it.

What does the record list as Cmax for CC(C)(C)Oc1cc(CCC(C)(C)N2Cc3ccc(S(C)(=O)=O)cc3C2)ccc1O [CT1812] ? 250

* * *

assay: Plasma and CSF pharmacokinetics from NCT03522129; assay type: in vivo, human; settings: human, CSF, 560 mg; Subject 90001; single dose of CT1812 (560 mg)
Property: Cmax
Param answer (str): number followed by unit.

What does the record list as Cmax for CC(C)(C)Oc1cc(CCC(C)(C)N2Cc3ccc(S(C)(=O)=O)cc3C2)ccc1O [CT1812] ? 0.0249 µg/mL

* * *

assay: Plasma and CSF pharmacokinetics from NCT03522129; type: in vivo, human; details: human, CSF, 560 mg; Subject 90003; single dose of CT1812 (560 mg)
Property: Cmax (ng/mL)
Give the value in ng/mL but do not write ng/mL after it.

What does the record list as Cmax for "CC(C)(C)Oc1cc(CCC(C)(C)N2Cc3ccc(S(C)(=O)=O)cc3C2)ccc1O" ? 7.27

* * *

test: Plasma and CSF pharmacokinetics from NCT03522129; assay type: in vivo, human; details: human, CSF/plasma, 560 mg, Subject 90003; single dose of CT1812 (560 mg); read-out: CSF/Plasma Ratio based on Cmax
Property: Kp
Just the number, please.

What does the record list as Kp for "CC(C)(C)Oc1cc(CCC(C)(C)N2Cc3ccc(S(C)(=O)=O)cc3C2)ccc1O" ? 0.0291

Cited source for all entries: patent US20230098944A1
